Every entry's value here was drawn from patent US20170101476A1.

Below: a set of entries, each annotated with reported FLIPR IC50, GRO-α induced intracellular calcium release.
System under test: T1, Human CXCR2 (human, UniProt P25025 1-360)
T1 sequence: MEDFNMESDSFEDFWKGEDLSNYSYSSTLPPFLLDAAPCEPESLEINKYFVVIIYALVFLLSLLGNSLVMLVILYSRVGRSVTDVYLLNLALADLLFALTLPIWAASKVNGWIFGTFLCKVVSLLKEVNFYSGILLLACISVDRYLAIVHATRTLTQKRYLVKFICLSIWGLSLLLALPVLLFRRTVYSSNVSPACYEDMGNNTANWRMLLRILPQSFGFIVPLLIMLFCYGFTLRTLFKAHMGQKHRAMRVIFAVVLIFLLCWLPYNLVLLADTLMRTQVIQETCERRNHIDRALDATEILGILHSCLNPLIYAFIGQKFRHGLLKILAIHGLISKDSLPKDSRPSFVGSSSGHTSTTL
Assay overview: cell-based or functional assay
Number only, in nM; omit the unit.

1) CXCR20034 (bispecific antibody, not shown: small tags and cut ends) EVQLVESGGGLVQAGGSLRLSCAASGRTFSDYAMGWFRQAPGKEREFVAAITWNGGRVFYTASVKGRFTISRDNAKNTMYLQMNSLKPEDTAVYYCAADKDRRTDYLGHPVAYWGQGTQVTVSSGGGGSGGGGSGGGGSGGGGSGGGGSGGGGSGGGGSEVQLVESGGELVQPGGSLRLSCAASGSILTINAMGWYRQAPGKQRELVVRRTRGGSTTYQDSVKGRFTISADIAKKTMYLQMNSLKPEDTAVYYCMLDDRGGVYWGQGTQVTVSS : 11.8

Look up and state reported FLIPR IC50, GRO-α induced intracellular calcium release for CXCR20036 (other, not shown: small tags and cut ends) EVQLVESGGGLVQAGGSLTLSCAVSGSTFRINTMGWYRRAPGKQRELVAARDRGGYINYVDSVKGRFTVSRDNAKPTMYLQMNSLKPEDTAVYYCHAGTQDRTGRNFDRWGQGTQVTVSSGGGGSGGGGSGGGGSGGGGSGGGGSGGGGSGGGGSEVQLVESGGGLVQAGGSLRLSCAASGRTFSDYAMGWFRQAPGKEREFVAAITWNGGRVFYTASVKGRFTISRDNAKNTMYLQMNSLKPEDTAVYYCAADKDRRTDYLGHPVAYWGQGTQVTVSS 7.86
